All values here come from patent US20230212170A1.

subjectOfTest: KRAS G12C (Homo sapiens, UniProt P01116, G12C)
protocolNotes: KRAS G12C nucleotide exchange assay (SOS1-mediated, mant-GDP fluorescence)
Format: biochemical
Design: KRas(1-169) G12C protein
assayContext: 15 min pre-incubation
Sequence (P01116 1-169 isoform P01116-2 G12C): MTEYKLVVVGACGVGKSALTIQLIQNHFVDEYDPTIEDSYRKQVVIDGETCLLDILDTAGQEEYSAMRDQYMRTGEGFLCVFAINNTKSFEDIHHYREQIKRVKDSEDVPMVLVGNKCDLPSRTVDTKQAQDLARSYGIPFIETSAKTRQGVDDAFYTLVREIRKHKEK
measurementName: IC50

> print(dat)
                               recordsmiles  reportedvalue
1  C=CC(=O)N1CCN(c2nc(OC[C@@H]3CCCN3C)nc3c(=O)n(-c4c(C)ccc5[nH]ncc45)c(C)nc23)C[C@@H]1CC#N         710 nM
2  C=CC(=O)N1CCN(c2nc(OC[C@@H]3CCCN3C)nc3c(=O)n(-c4cc(OC)cc5ccccc45)c(C)nc23)C[C@@H]1CC#N         900 nM
3  C=CC(=O)N1CCN(c2nc(OC[C@@H]3CCCN3C)nc3c(=O)n(-c4cccc5ccccc45)c(CC)nc23)C[C@@H]1CC#N         860 nM
4  Cc1nc2c(N3CCN[C@@H](CC#N)C3)nc(OC[C@@H]3CCCN3C)nc2c(=O)n1-c1cccc2ccccc12         690 nM
5  C=CC(=O)N1CCN(c2nc(OC[C@@H]3CCCN3C)nc3c(=O)n(-c4cccc5cccc(CC)c45)c(C)nc23)C[C@@H]1CC#N        1070 nM

* * *

subjectOfTest: KRAS G12C (Homo sapiens, UniProt P01116, G12C)
protocolNotes: KRAS GDP FI assay
Format: biochemical
assayContext: kinetic reading Ex580/Em620 for 120 min
Sequence (P01116 1-188 isoform P01116-2 G12C): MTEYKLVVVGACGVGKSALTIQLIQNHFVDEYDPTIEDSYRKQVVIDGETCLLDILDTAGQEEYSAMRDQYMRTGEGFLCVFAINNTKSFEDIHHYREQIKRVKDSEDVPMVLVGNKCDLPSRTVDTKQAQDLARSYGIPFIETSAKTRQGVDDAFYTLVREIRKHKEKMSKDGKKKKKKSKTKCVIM
Listing of entries alongside the reported IC50.

molecule	IC50, nM
C=CC(=O)N1C[C@H](C)N(c2nc(OC[C@@H]3CCCN3C)nc3c(=O)n(-c4cccc5cccc(Cl)c45)c(C(F)(F)F)nc23)[C@@H](C)C1 (single isomer, unassigned) [Example 29-a]	89
C=CC(=O)N1C[C@H](C)N(c2nc(OC[C@@H]3CCCN3C)nc3c(=O)n(-c4cccc5cccc(Cl)c45)c(C(F)(F)F)nc23)[C@@H](C)C1 (single isomer, unassigned) [Example 29-b]	127
C=CC(=O)N1CCN(c2nc(OC[C@@H]3CCCN3C)nc3c(=O)n(-c4cccc5cccc(Cl)c45)c(C(F)(F)F)nc23)C[C@@H]1CC#N (single isomer, unassigned) [Example 32-b]	83
C=CC(=O)N1CCN(c2nc(OC[C@@H]3CCCN3C)nc3c(=O)n(-c4ccccc4F)c(C(F)(F)F)nc23)[C@@H](C)C1 (single isomer, unassigned) [Example 40-b]	405
C=CC(=O)N1CCN(c2nc(OC[C@@H]3CCCN3C)nc3c(=O)n(-c4cccc5cccc(C)c45)c(-c4ccccc4)nc23)C[C@@H]1CC#N [Example 39]	364
C=CC(=O)N1CCN(c2nc(OC[C@@H]3C[C@@H](F)CN3C)nc3c(=O)n(-c4cccc5cccc(Cl)c45)c(C(F)(F)F)nc23)[C@@H](C)C1 (single isomer, unassigned) [Example 36-a]	155
C=CC(=O)N1CCN(c2nc(OC[C@@H]3CCCN3C)nc3c(=O)n(-c4c(F)cccc4OC)c(C(F)(F)F)nc23)C[C@@H]1CC#N [Example 38]	494
C=CC(=O)N1CCN(c2nc(OC[C@@H]3CCCN3C)nc3c(=O)n(-c4cccc5cccc(Cl)c45)c(C)nc23)[C@@H](C)C1 (single isomer, unassigned) [Compound 26-b]	1500
